Listed compounds paired with reported TGI
tested on: U251 CNS; experiment: NCI tumour cell line growth inhibition, 48 h

compound | assay result
O=C(/C=C/c1ccc[nH]1)c1ccccc1 | > 100 µM

State the recorded TGI for this entry: `COc1ccccc1CN=C1NC(=O)/C(=C/c2ccc3ncccc3c2)S1`
> 16.1 µM

====

tested on: SNB-19 CNS; assay: NCI tumour cell line growth inhibition, 48 h
observed property: TGI

Answered cases to consult:
molecule | TGI
COc1ccccc1CN=C1NC(=O)/C(=C/c2ccc3ncccc3c2)S1 | > 25 µM
Cc1ccccc1NC(=O)N/C(N)=N/c1nc(C)c(C)s1 | 52.7 µM
CCCCCCCCCCCCCCC(C(=O)[O-])[n+]1ccccc1 (stereo unspecified) | > 100 µM
CCOc1ccccc1NC(=O)CSc1nnc(Cc2ccccc2)o1 | 48.7 µM
COc1ccc2c(c1)C(=O)c1c-2n(CCCCl)c(=O)c2cc([N+](=O)[O-])ccc12 | > 100 µM

Looking for the measured TGI of COc1ccc(C(=O)OC2C(OC3C(O)COC(O[C@H]4C[C@H]5[C@@H]6CC=C7C[C@@H](O)CC[C@]7(C)[C@H]6CC[C@]5(C)[C@H]4[C@H](C)C(=O)CCC(C)C)C3OC(=O)C(C)C)OCC(O)C2O)cc1 (stereo partly specified) , can you help?
3.97 µM

TGI lookup needed for `COC(=O)c1ccc(CS(=O)(=O)c2ccccc2)cc1` , thanks.
> 100 µM

Report TGI for `COc1cc(C(=O)O)cc2c1[nH]c1ccccc12` please.
> 25 µM

Given `COc1ccc(OC)c2sc(N3C(=O)/C(=C/c4ccc(SC)cc4)N=C3c3ccccc3)nc12` , state its recorded TGI.
68.5 µM

Fill in: TGI of `NNC(=O)CC(=O)Nc1ccccc1Cl` is ___
> 100 µM

From: PubChem BioAssay (NCI)
